# pIC50 annotations
STUDY_SYSTEM: human androgen receptor (Homo sapiens)
Construct: expressed in transfected cells; host or cells: HeLa cells (clone 11A11B2), stably co-transfected with MMTV-Luc-Hyg reporter
PROTOCOL_TEXT: Test Example 2: antagonist effect, androgen receptor reporter gene assay in 11A11B2 cells with 0.1 nmol/L DHT
Type: cell-based
TEST_CONTEXT: concentration giving 50% transcription activity after subtracting the Test Example 1 agonist rate; 0.1 nmol/L DHT; 11A11B2 cells, 48 hours; read-out: IC50
pIC50: −log10 of the molar value.
PARAMETER_MEASURED: pIC50

- CC1(C)C(=O)N(c2ccc(C#N)c(C(F)(F)F)c2)C(=S)N1CCCCCS(N)(=O)=O [Example 7]: 6.05
- CNS(=O)(=O)CCCCN1C(=S)N(c2ccc(C#N)c(C(F)(F)F)c2)C(=O)C1(C)C [Example 16]: 6.15
- CN(C)S(=O)(=O)CCCCCN1C(=S)N(c2ccc(C#N)c(C(F)(F)F)c2)C(=O)C1(C)C [Example 10]: 6.70
- CC(=O)NCCN1C(=S)N(c2ccc(C#N)c(C(F)(F)F)c2)C(=O)C1(C)C [Comparative Example 2, reference compound]: 6.10
- CC1(C)C(=O)N(c2ccc(C#N)c(C(F)(F)F)c2)C(=S)N1CCCCS(N)(=O)=O [Example 2]: 6.22
- CC1(C)C(=O)N(c2ccc(C#N)c(C(F)(F)F)c2)C(=S)N1CCCCCCS(N)(=O)=O [Example 3]: 6.70

====

STUDY_SYSTEM: human androgen receptor (Homo sapiens, UniProt P10275)
Construct: expressed in transfected cells; host or cells: HeLa cells (clone 11A11B2), stably co-transfected with MMTV-Luc-Hyg reporter
Sequence (P10275 whole entry): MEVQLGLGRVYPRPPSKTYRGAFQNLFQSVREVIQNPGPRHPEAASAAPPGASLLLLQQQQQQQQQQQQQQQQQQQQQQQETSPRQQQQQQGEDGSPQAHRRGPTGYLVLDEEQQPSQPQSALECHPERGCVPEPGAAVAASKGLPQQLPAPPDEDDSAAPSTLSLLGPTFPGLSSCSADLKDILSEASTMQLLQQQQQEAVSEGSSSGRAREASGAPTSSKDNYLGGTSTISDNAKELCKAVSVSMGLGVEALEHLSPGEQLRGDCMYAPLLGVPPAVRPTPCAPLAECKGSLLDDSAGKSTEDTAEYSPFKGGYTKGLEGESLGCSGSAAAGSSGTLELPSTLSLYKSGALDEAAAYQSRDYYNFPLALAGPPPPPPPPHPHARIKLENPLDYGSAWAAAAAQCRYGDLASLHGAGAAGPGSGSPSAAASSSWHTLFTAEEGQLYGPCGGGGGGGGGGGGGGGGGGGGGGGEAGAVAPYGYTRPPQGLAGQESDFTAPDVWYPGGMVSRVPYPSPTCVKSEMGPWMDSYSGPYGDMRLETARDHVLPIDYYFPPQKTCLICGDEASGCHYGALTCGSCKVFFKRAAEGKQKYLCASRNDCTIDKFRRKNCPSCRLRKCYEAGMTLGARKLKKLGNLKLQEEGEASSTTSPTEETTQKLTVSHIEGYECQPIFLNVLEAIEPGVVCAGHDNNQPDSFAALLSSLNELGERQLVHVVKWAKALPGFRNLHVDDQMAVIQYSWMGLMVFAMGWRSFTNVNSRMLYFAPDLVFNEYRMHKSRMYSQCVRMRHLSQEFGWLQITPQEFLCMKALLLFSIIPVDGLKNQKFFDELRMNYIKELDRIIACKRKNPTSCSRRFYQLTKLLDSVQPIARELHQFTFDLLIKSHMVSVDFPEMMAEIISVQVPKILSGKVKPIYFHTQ
PROTOCOL_TEXT: Test Example 1: agonist effect, androgen receptor reporter gene assay in 11A11B2 cells
Assay type: cell-based
TEST_CONTEXT: compound concentration showing transcription activity of 5% (0.1 nmol/L DHT = 100%, assay medium alone = 0%), 48 hours
PARAMETER_MEASURED: EC5 (nM)

* CC1(C)C(=O)N(c2ccc(C#N)c(C(F)(F)F)c2)C(=S)N1CCCCCCS(N)(=O)=O | 3000
* CC(C)(O)C(=O)Nc1ccc([N+](=O)[O-])c(C(F)(F)F)c1 [Comparative Example 4, hydroxyflutamide] | 10
* CN(C)S(=O)(=O)CCCCN1C(=S)N(c2ccc(C#N)c(C(F)(F)F)c2)C(=O)C1(C)C | 2000

====

STUDY_SYSTEM: human androgen receptor (Homo sapiens, UniProt P10275)
Construct: expressed in transfected cells; host or cells: HeLa cells (clone 11A11B2), stably co-transfected with MMTV-Luc-Hyg reporter
PROTOCOL_TEXT: Test Example 1: agonist effect, androgen receptor reporter gene assay in 11A11B2 cells
Type: cell-based
TEST_CONTEXT: compound concentration showing transcription activity of 5% (0.1 nmol/L DHT = 100%, assay medium alone = 0%), 48 hours
# EC5 annotations
PARAMETER_MEASURED: EC5

• CC1(C)C(=O)N(c2ccc(C#N)c(C(F)(F)F)c2)C(=S)N1CCCCS(N)(=O)=O = >100 µM
• CN(C)S(=O)(=O)CCCCCN1C(=S)N(c2ccc(C#N)c(C(F)(F)F)c2)C(=O)C1(C)C = 2 µM
• CC1(C)C(=O)N(c2ccc(C#N)c(C(F)(F)F)c2)C(=S)N1CCCCCS(N)(=O)=O = >10 µM
• CC1(C)C(=O)N(c2ccc(C#N)c(C(F)(F)F)c2)C(=S)N1CCCS(N)(=O)=O = 20 µM
• CC1(C)C(=O)N(c2ccc(C#N)c(C(F)(F)F)c2)C(=S)N1CCS(N)(=O)=O = 7 µM
• CN1C(=S)N(c2ccc(C#N)c(C(F)(F)F)c2)C(=O)C1(C)C [Comparative Example 1, reference compound] = 8e-05 µM
• CC(=O)NCCN1C(=S)N(c2ccc(C#N)c(C(F)(F)F)c2)C(=O)C1(C)C [Comparative Example 2, reference compound] = 3 µM
